Target: aryl hydrocarbon receptor (AhR) (Homo sapiens, UniProt P35869)
Construct: Recombinant human AhR (LS-G13702-10)
Sequence (P35869 11-848): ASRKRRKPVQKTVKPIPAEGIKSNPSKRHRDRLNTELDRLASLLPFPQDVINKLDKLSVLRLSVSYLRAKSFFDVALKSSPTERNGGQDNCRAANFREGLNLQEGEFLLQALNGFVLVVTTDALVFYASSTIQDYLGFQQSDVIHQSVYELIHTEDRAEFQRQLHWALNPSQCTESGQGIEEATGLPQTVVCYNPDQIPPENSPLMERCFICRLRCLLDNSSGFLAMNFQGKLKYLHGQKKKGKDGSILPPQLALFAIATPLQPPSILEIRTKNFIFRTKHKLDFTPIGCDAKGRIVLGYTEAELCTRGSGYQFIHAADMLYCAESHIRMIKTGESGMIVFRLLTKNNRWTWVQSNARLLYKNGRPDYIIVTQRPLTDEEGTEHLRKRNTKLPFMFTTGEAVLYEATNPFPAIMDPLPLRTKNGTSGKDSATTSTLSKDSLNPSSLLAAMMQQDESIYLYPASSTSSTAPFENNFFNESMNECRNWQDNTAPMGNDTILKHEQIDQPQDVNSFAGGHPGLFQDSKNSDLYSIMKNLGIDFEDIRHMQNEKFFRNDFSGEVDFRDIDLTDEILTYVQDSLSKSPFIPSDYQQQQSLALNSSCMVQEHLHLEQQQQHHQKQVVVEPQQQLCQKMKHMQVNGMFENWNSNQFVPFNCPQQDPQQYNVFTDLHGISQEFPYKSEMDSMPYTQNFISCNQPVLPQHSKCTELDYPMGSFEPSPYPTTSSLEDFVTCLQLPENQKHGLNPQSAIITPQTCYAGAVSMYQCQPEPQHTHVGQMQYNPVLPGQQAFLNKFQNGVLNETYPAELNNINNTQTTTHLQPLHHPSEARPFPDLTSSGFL
Assay: Nano-ITC with recombinant protein

# compound, Kd (µM)
measured = [
    ("O=c1cc(-c2ccc(O)cc2)oc2cc(O)cc(O)c12 [Apigenin]", 4.24),
]

* * *

Molecular target: ATP binding cassette subfamily B member 1 (ABCB1/P-gp) (Homo sapiens)
Construct: Recombinant human ABCB1 (LS-G142372-20)
Sequence (P08183 whole entry): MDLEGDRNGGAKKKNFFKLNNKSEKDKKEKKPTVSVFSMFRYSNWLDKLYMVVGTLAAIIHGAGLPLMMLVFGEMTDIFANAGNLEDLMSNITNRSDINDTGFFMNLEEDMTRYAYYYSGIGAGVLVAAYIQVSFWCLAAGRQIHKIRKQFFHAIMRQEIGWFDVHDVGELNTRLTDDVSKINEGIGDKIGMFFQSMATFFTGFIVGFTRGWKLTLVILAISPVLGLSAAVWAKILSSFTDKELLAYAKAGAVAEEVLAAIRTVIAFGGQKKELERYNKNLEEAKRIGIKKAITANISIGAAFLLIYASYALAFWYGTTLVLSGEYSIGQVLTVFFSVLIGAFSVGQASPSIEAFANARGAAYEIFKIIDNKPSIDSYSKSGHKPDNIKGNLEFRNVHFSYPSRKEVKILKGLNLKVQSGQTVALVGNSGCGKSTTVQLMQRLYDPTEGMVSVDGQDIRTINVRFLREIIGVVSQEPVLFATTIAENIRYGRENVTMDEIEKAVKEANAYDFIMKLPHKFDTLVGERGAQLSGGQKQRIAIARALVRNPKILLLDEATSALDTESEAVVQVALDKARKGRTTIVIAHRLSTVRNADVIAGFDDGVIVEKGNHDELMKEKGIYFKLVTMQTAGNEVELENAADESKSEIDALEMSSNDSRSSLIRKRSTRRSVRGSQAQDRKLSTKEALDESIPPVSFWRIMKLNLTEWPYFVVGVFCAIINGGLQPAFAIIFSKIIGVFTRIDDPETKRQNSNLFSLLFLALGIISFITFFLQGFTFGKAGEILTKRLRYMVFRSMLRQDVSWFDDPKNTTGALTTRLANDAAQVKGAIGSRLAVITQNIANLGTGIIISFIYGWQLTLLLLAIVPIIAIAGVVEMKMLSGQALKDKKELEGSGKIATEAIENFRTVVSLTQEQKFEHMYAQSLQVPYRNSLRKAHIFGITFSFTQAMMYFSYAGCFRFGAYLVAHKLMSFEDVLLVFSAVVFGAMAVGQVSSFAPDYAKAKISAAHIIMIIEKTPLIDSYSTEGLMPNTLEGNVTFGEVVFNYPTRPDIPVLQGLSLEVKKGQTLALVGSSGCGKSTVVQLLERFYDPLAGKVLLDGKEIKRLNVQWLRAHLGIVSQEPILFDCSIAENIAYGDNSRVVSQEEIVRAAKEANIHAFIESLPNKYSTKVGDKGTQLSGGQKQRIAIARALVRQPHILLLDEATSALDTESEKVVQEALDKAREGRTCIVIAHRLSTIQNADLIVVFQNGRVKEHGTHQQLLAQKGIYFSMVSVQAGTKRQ
Assay: Nano-ITC with recombinant protein (positive control protein)
assay.readout: Kd (nM)

# structure, assay.readout, recorded.measurement
records = [
    ("O=c1cc(-c2ccc(O)cc2)oc2cc(O)cc(O)c12", "Kd", 1),
]
